Assay: qHTS assay to identify small molecule antagonists of the thyroid receptor (TR) signaling pathway (AID 743065); further: nearly all actives have a fitted effect of over 55% in size
Conditions: GH3.TRE-Luc, T3-stimulated luciferase inhibition, 23.5 h; series mostly up to 70.3 µM
Results filed as inconclusive are left out. The source made the active and inactive calls. The call rests on the fitted dose curve; in most records, active means well fitted inhibition curve with a large enough effect in the repeat runs; inconclusive means weak or mixed curves; inactive means no such curve, though single readings can be large or run the other way.
Select the correct class. Options are active, inactive and nothing else.

Input line: Record request — test call for O=C1OC2(c3ccccc31)c1cc(I)c(O)c(I)c1Oc1c2cc(I)c(O)c1I
Output line: active

Input line: Record request — test call for CCC/C=C/C=O
Output line: inactive

Input line: Record request — test call for COc1ccc(-c2coc3cc(O)cc(O)c3c2=O)cc1
Output line: active

Input line: Record request — test call for Cc1ccc(C(C)(C)C)c(O)c1
Output line: active

Input line: Record request — test call for C=CCCCCCCCCCC
Output line: inactive

Input line: Record request — test call for O=C(O)c1cc(=O)[nH]c(=O)[nH]1
Output line: inactive

Input line: Record request — test call for Oc1c(Cl)ccc(Cl)c1Cl
Output line: inactive

Input line: Record request — test call for COC(=O)CC(=O)OC
Output line: inactive

Input line: Record request — test call for CC1(C)O[C@@H]2C[C@H]3[C@@H]4C[C@H](F)C5=CC(=O)C=C[C@]5(C)[C@@]4(F)[C@@H](O)C[C@]3(C)[C@]2(C(=O)CO)O1
Output line: inactive

Input line: Record request — test call for C=C[Si](OCCOC)(OCCOC)OCCOC
Output line: inactive

Input line: Record request — test call for NCCOCCO
Output line: inactive

Input line: Record request — test call for CCCCCCCCCCCCCO
Output line: inactive

Input line: Record request — test call for FC(F)(F)C(Cl)Br (stereo not given)
Output line: inactive

Input line: Record request — test call for C=C[C@@]1(C)CC(=O)[C@]2(O)[C@@]3(C)[C@@H](O)CCC(C)(C)[C@@H]3[C@H](O)[C@H](OC(C)=O)[C@@]2(C)O1
Output line: inactive

Input line: Record request — test call for CN(C)/N=N/c1nc[nH]c1C(N)=O
Output line: inactive

Input line: Record request — test call for Cc1ccc(N)c([N+](=O)[O-])c1
Output line: inactive

Input line: Record request — test call for C[C@]12C=CC(=O)C=C1CC[C@H]1[C@@H]3C[C@@H](O)[C@](O)(C(=O)CO)[C@@]3(C)C[C@H](O)[C@@]12F
Output line: inactive

Input line: Record request — test call for c1ccc2ncccc2c1
Output line: inactive

Input line: Record request — test call for CCCCCC1C(=O)CCC1CC(=O)OC (stereo not given)
Output line: inactive

Input line: Record request — test call for COC(=O)C(C)Oc1ccc(Oc2ncc(C(F)(F)F)cc2Cl)cc1 (stereo not given)
Output line: inactive

Input line: Record request — test call for O=S1(=O)CCCO1
Output line: inactive

Input line: Record request — test call for C1COCCN1
Output line: inactive

Input line: Record request — test call for O=C1CCc2ccccc2O1
Output line: inactive

Input line: Record request — test call for C=CC(=O)OCCCC
Output line: inactive

Input line: Record request — test call for O=C(O)c1ccc(O)cc1
Output line: inactive
